Every entry's value here was drawn from patent US20040014638A1.

- TEST TARGET: T1, human CLLD8 protein (human, UniProt Q96T68 1-719, limits assumed)
- T1 sequence: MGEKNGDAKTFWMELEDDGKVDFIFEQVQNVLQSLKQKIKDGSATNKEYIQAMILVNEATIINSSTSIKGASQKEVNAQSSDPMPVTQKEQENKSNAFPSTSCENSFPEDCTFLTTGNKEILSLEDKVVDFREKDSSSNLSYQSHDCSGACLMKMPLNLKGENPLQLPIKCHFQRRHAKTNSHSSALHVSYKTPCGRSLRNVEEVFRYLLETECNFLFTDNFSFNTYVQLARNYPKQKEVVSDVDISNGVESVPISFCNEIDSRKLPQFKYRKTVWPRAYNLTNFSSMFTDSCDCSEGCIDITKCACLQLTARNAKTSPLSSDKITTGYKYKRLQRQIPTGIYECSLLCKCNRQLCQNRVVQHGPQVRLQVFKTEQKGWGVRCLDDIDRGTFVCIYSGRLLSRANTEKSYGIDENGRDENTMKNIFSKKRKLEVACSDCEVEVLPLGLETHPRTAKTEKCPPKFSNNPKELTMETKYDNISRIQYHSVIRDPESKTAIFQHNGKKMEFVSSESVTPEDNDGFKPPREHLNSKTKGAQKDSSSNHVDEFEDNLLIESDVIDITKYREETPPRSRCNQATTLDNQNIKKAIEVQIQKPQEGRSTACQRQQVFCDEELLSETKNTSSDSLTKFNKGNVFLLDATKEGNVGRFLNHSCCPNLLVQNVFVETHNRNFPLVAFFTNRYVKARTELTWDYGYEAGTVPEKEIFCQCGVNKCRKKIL
- ASSAY SUMMARY: cell-based or functional assay
Ends that are not written are not given here.
ATTRIBUTE MEASURED: reporter ratio (GFP under germline ε promoter, A5T4 reporter line)

P = AMHGHHAAPWGMEQGCTPLG [peptide CL02A3GW]
Q = AMHGHHGWPWGMEQGCTPAA [peptide CL02A3LG]
Input pair: P , Q . Output: entry with lower reporter ratio (GFP under germline ε promoter, A5T4 reporter line). Indicate which entry you chose by stating its label.
P
(P: 1.16, Q: 1.99)

A = RAHGHHGWPWGMEQGCTPLG [peptide CL02A3AM]
B = AMHGHHGWPWGMEQGCTPLG (also: expressed as BFP-peptide fusion via alpha-helical linker, bait in pGBKT7) [peptide CL02A3 wt]
Input pair: A , B . Output: entry with lower reporter ratio (GFP under germline ε promoter, A5T4 reporter line). Indicate which entry you chose by stating its label.
A
(A: 1.03, B: 1.62)
